# Subject of test: Ros1 enzyme (Homo sapiens)
# Construct: 0.5 μg/ml Ros1 enzyme
# Sequence (P08922 28-2347): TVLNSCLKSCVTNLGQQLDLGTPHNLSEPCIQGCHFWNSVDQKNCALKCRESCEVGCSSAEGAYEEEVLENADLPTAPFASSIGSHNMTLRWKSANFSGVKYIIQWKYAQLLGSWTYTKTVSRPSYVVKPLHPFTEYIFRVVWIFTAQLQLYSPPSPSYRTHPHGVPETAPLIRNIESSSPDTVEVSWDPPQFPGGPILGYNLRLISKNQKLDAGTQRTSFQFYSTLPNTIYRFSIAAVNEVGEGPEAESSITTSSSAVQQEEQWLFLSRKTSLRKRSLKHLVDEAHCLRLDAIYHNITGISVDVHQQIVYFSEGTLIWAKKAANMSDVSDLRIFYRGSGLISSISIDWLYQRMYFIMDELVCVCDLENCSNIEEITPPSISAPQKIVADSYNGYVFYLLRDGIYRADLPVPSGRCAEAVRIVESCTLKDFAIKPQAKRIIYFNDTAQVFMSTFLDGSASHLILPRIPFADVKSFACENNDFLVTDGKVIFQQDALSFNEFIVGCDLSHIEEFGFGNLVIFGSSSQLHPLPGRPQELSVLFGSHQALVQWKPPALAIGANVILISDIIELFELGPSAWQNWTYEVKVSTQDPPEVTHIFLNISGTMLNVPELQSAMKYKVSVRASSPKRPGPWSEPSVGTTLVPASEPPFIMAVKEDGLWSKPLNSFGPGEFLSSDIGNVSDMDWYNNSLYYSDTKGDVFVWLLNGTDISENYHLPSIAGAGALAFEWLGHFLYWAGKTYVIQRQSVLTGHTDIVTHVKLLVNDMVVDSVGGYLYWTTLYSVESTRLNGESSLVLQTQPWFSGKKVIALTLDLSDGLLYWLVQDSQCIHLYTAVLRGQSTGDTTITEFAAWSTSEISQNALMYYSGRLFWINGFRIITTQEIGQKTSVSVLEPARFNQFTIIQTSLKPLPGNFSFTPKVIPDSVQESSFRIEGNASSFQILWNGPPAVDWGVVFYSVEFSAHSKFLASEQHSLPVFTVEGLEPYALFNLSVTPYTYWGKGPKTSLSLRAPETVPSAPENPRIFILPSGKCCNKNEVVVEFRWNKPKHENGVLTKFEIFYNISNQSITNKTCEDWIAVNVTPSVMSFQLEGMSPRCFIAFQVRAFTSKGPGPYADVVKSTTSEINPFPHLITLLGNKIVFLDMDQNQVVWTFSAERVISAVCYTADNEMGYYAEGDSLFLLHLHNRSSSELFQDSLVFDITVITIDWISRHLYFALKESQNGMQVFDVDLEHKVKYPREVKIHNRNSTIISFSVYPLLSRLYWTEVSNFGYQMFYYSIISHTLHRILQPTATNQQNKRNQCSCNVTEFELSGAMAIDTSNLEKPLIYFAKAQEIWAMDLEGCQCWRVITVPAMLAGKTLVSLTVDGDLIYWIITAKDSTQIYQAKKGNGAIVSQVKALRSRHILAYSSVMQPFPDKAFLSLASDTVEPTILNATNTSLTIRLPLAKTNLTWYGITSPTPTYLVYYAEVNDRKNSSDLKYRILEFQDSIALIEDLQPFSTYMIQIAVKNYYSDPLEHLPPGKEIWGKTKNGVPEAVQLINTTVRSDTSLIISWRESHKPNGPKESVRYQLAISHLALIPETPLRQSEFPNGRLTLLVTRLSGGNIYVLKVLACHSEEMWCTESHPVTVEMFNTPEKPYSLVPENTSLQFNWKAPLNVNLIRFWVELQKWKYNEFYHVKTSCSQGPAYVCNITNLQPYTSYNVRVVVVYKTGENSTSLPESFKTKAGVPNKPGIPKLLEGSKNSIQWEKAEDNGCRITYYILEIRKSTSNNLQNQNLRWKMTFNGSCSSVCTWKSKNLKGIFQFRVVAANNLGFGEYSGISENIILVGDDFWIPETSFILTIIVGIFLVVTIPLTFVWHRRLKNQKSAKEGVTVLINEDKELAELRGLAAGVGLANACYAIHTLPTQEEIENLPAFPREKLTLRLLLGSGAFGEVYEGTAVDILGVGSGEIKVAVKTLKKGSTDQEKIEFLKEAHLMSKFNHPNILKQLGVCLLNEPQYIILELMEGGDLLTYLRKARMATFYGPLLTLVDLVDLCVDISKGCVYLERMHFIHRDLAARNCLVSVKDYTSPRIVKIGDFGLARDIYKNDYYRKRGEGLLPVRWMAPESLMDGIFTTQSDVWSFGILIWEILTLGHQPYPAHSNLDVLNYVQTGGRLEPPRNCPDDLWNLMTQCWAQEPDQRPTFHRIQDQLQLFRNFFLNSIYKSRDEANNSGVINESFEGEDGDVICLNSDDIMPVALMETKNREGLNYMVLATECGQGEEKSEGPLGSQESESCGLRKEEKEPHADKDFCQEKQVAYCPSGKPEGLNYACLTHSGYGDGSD
# Experiment: Ros1 enzymatic assay
# Type: biochemical
# Run conditions: Ros1 enzymatic assay; read-out: ROS1 pIC50 (converted)
# Method: Compounds were spotted onto white 384-well Proxiplate plus plates (Perkin Elmer) to which 5 μl of enzyme mix (0.5 μg/ml Ros1 enzyme, 50 mM Tris-HCl pH7.5, 1 mM EGTA, 10 mM MgCl2, 0.01% Tween-20) and 5 μl of substrate mix (6 μg/ml IRS-Tide [American Peptide Company], 20 μM ATP, 13.33 μCi/ml ATP (adenosine 5′-triphosphate) P^33, 50 mM Tris-HCl pH7.5, 1 mM EGTA (ethylene glycol-bis(2-aminoethylether)-N,N,N′,N′-tetraacetic acid), 10 mM MgCl2, 0.01% Tween-20) were added. […]
Reported metric: log10 of IC50 (log10 of the value in nM)
Give log10 of IC50, with IC50 taken in nM.

Recorded results for 5 molecules are shown here.
[
  {
    "Molecule": "CC(C)c1cc(F)c(COc2ccc(-c3c(-c4ccncc4)nn4c3C(=O)N(CC(O)CO)CC4)cc2)c(F)c1 (stereo not shown) [Compound 95]",
    "log10 of IC50": 2.20
  },
  {
    "Molecule": "CC(C)c1ccc(COc2ccc(-c3c(-c4ccncc4)nn4c3C(=O)N(CC3(C)COC3)CC4)cc2)cc1 [Compound 54]",
    "log10 of IC50": 1.90
  },
  {
    "Molecule": "CC(C)c1ccc(COc2ccc(-c3c(-c4ccncc4)nn4c3C(=O)NCC4)cc2)cc1CN [Compound 86]",
    "log10 of IC50": 1.00
  },
  {
    "Molecule": "O=C1c2c(-c3ccc(OCc4ccc(C5CC5)nc4)cc3)c(-c3ccncc3)nn2CCN1CC(O)CO (stereo not shown) [Compound 140]",
    "log10 of IC50": 2.40
  },
  {
    "Molecule": "CC(C)c1ccc(C(Oc2ccc(-c3c(-c4ccncc4)nn4c3C(=O)NCC4)cc2)C(=O)NCCO)cc1 (stereo not shown) [Compound 218]",
    "log10 of IC50": 2.30
  }
]

Please report log10 of IC50 for every entry that follows.
1. CC(C)c1cc(F)c(COc2ccc(-c3c(-c4ccncc4)nn4c3C(=O)N(CC(O)CO)CC4)cc2)cc1F (stereo not shown) [Compound 99]
2. CC(C)c1ccc(COc2ccc(-c3c(-c4ccncc4)nn4c3C(=O)NCC4)cc2)cc1C#N [Compound 85]

1: 2.70; 2: 1.60
